# TEST SYSTEM: T1, huCTLA4 (antigen of the Octet experiments) (human, UniProt P16410 37-162, limits assumed)
# T1 construct: Construct of the soluble antigen not described; also called the antigen
# T1 sequence (P16410 37-162 limits assumed): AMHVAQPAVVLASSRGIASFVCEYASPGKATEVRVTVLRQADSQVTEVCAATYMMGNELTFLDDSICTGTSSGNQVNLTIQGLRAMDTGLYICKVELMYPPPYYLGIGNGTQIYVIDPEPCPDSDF
# METHOD SUMMARY: BLI (Octet Red96), antibody on anti-hIgG Fc biosensor, huCTLA4 in solution, 1:1 fit
Kindly supply the reported kon values for the records listed here.
Numbers only, in M⁻¹ s⁻¹.

Humanized HC1 + LC3 (PP4632) (antibody, IgG1, V domains shown, Humanized L3D10; also called H3106 + L3108) VH: QVQLQESGPGLVKPSETLSLTCTVSGFSLTSYGLSWIRQPPGKGLEWIGYIWYDGNTNFHPSLKSRVTISKDTSKNQFSLKLSSVTAADTAVYYCAKTEGHYYGSNYGYYALDYWGQGTSVTVSS VL: DIQMTQSPSSLSASVGDRVTITCRASENIYSNLAWYQQKPGKAPKLLIYAATSLQSGVPSRFSGSGSGTDFTLTISSLQPEDFATYYCQHLWGTPYTFGGGTKVEIK | 160000
Humanized HC2 + LC2 (PP4634) (antibody, IgG1, V domains shown, Humanized L3D10; also called H3107 + L3107) VH: QVQLQESGPGLVKPSETLSLTCTVSGFSLTSYGLSWIRQPPGKGLEWIGYIWYDGNTNFHSSLKSRVTISKDTSKSQVSLKLSSVTAADTAVYYCAKTEGHYYGSNYGYYALDYWGQGTLVTVSS VL: DIQMTQSPSSLSASVGDRVTITCRASENIYSNLAWYQQKQGKAPKLLLYAATNLQDGVPSRFSGSGSGTDYTLTISSLQPEDFATYFCQHLWGTPYTFGQGTKLEIK | 280000
Humanized HC2 + LC1 (PP4633) (antibody, IgG1, V domains shown, Humanized L3D10; also called H3107 + L3106) VH: QVQLQESGPGLVKPSETLSLTCTVSGFSLTSYGLSWIRQPPGKGLEWIGYIWYDGNTNFHSSLKSRVTISKDTSKSQVSLKLSSVTAADTAVYYCAKTEGHYYGSNYGYYALDYWGQGTLVTVSS VL: DIQMTQSPSSLSASVGDRVTITCRASENIYSNLAWYQQKPGKAPKLLLYAATNLQSGVPSRFSGSGSGTDFTLTISSLQPEDFATYYCQHLWGTPYTFGGGTKLEIK | 200000

From here, focus on the item given below.
Ask | Dear colleague, I am looking for the recorded kon of the following binder: Humanized HC2 + LC3 (PP4635) (antibody, IgG1, V domains shown, Humanized L3D10; also called H3107 + L3108) VH: QVQLQESGPGLVKPSETLSLTCTVSGFSLTSYGLSWIRQPPGKGLEWIGYIWYDGNTNFHSSLKSRVTISKDTSKSQVSLKLSSVTAADTAVYYCAKTEGHYYGSNYGYYALDYWGQGTLVTVSS VL: DIQMTQSPSSLSASVGDRVTITCRASENIYSNLAWYQQKPGKAPKLLIYAATSLQSGVPSRFSGSGSGTDFTLTISSLQPEDFATYYCQHLWGTPYTFGGGTKVEIK
Reply | 240000
